Tested on: others of recombinant CYP1A2, 2B6, 2C8, 2C9, 2C19, 2D6 and 3A4
Details: recombinant enzyme
reported endpoint: half-life (t1/2) of parent compound depletion from phenotyping assay, others

These solved cases illustrate the format of a correct answer.
Which measured half-life (t1/2) of parent compound depletion from phenotyping assay, others value corresponds to O=c1[nH]c2ccccc2n1C1CCN(CCCC(c2ccc(F)cc2)c2ccc(F)cc2)CC1 [pimozide] ?
3A4 (2.7 m), 2D6 (3.2 m), others (>60 m)

Queued: O=C(NC1CCN(CCc2c[nH]c3ccccc23)CC1)c1ccccc1 [indoramin]
2D6 (<5 m), 3A4 (16.0 m), others (>60 m)

Field entry: COc1cc(N)c(Cl)cc1C(=O)NC1CCN(CCCOc2ccc(F)cc2)CC1OC (stereo not shown) [cisapride]
3A4 (<5 m), others (>60 m)

Further cases:
What value of half-life (t1/2) of parent compound depletion from phenotyping assay, others has been recorded for this entry: COc1ccc(CCN2CCC(Nc3nc4ccccc4n3Cc3ccc(F)cc3)CC2)cc1 [astemizole]
3A4 (1.5 m), 2D6 (4.0 m), others (>60 m)

Another molecule: COc1cc(N)c(Cl)cc1C(=O)NC1CCN(Cc2ccccc2)CC1 [clebopride]
3A4 (<5 m), others (>60 m)

---

Molecular target: UniProt P10635
Sequence (P10635 whole entry): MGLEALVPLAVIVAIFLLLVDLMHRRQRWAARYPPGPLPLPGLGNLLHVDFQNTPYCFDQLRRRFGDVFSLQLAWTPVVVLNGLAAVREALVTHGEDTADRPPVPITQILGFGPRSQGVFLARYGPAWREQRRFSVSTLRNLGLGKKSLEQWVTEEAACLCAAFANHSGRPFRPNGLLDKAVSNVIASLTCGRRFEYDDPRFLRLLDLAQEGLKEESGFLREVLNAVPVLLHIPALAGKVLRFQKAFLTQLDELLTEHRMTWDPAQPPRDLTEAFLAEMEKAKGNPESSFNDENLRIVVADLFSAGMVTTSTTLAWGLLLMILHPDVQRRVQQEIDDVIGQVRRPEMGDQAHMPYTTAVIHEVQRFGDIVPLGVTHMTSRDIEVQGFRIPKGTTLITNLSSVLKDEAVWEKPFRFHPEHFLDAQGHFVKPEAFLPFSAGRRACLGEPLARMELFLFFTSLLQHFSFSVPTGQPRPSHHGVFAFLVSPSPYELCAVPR
Details: recombinant enzyme
Reported half-life (t1/2) of parent compound depletion from phenotyping assay, 2D6 by item:

# annotated cases, reported half-life (t1/2) of parent compound depletion from phenotyping assay, 2D6 shown
Any idea what half-life (t1/2) of parent compound depletion from phenotyping assay, 2D6 came out for O=c1[nH]c2ccccc2n1C1CCN(CCCC(c2ccc(F)cc2)c2ccc(F)cc2)CC1 [pimozide] on UniProt P10635?
3A4 (2.7 m), 2D6 (3.2 m), others (>60 m)

What about this molecule? O=C(NC1CCN(CCc2c[nH]c3ccccc23)CC1)c1ccccc1
2D6 (<5 m), 3A4 (16.0 m), others (>60 m)

Continuing:
Field: half-life (t1/2) of parent compound depletion from phenotyping assay, 2D6 (UniProt P10635). Entry: COc1ccc(CCN2CCC(Nc3nc4ccccc4n3Cc3ccc(F)cc3)CC2)cc1
3A4 (1.5 m), 2D6 (4.0 m), others (>60 m)
